Reference source: the C3SDB collision cross section collection

Overview of reported collision cross section (N2) across a group of compounds:
Details: [M+CH3COO]-; instrument: TW; calibrated with phosphatidylcholines (ESI+) and phosphatidylethanolamines (ESI-)

COMPOUND	READING_UNIT	collision cross section (N2)
CCCCCCCC/C=C\CCCCCCCCCCCC(=O)OC[C@H](COP(=O)([O-])OCC[N+](C)(C)C)OC(=O)CCCCCCCCCCCCC	Å²	294.5
CCCCC/C=C\C/C=C\C/C=C\CCCCC(=O)OC[C@H](COP(=O)([O-])OCC[N+](C)(C)C)OC(=O)CCCCCCC/C=C\CCCCCCCC	Å²	290.8
CC/C=C\C/C=C\C/C=C\CCCCCCCC(=O)OC[C@H](COP(=O)([O-])OCC[N+](C)(C)C)OC(=O)CCCCCC/C=C\C/C=C\C/C=C\CCCCC	Å²	294
CCCCCC/C=C\CCCCCCCCCC(=O)OC[C@H](COP(=O)([O-])OCC[N+](C)(C)C)OC(=O)CCCCCCC/C=C\CCCCCC	Å²	287.7

----------
Details: [M+H]+; instrument: DT; stepped-field
Overview of reported collision cross section (N2) across a group of compounds:
MEASURED_PARAMETER: collision cross section (N2) (Å²)

COMPOUND	MEASURED_PARAMETER	EXPERIMENTAL_VALUE
CCCCCCCCCCCCCCCCCCCCCCCC(=O)N[C@@H](COP(=O)([O-])OCC[N+](C)(C)C)[C@H](O)CCCCCCCCCCCCCCC [SM(42:00)]	collision cross section (N2)	305.33
CCCCCCCCCCC/C=C\CCCCC(=O)O[C@H](COC(=O)CCCCCCCCCCCCCCCCC)COP(=O)([O-])OCC[N+](C)(C)C [PC(36:01)]	collision cross section (N2)	288.22
CCCCCCCCCCCCC=CC[C@@H](O)[C@H](CO)NC(=O)CC=CCCCCCCCCCCCCCCCCCC [Cer(40:02)]	collision cross section (N2)	272.27
CCCCCCCCCCCCC=CC[C@@H](O)[C@H](COP(=O)([O-])OCC[N+](C)(C)C)NC(=O)CCCCCCCCCCCCCCCCC [SM(36:01)]	collision cross section (N2)	286.24
CCCCC/C=C\C/C=C\C/C=C\C/C=C\CCCCCC(=O)O[C@H](COC(=O)CCCCCCC/C=C\C/C=C\CCCCC)COP(=O)(O)OC[C@H](N)C(=O)O [PS(40:06)]	collision cross section (N2)	287.73
CCCCCCCCCCCCC=CC[C@@H](O)[C@H](CO[C@@H]1O[C@H](CO)[C@@H](O)C(O)C1O)NC(=O)CC=CCCCCCCCCCCCCCCCCCCCC (stereo partly drawn) [GlcCer(42:02)]	collision cross section (N2)	299.26
CCCCCCCCCCCCC=CC[C@@H](O)[C@H](COP(=O)([O-])OCC[N+](C)(C)C)NC(=O)CC=CCCCCCCCCCCCCCCCCCCCCCC [SM(44:02)]	collision cross section (N2)	307.52
CCCCCCCCCCCCC=CC[C@@H](O)[C@H](COP(=O)([O-])OCC[N+](C)(C)C)NC(=O)CC=CCCCCCCCCCCCCCCCCCC [SM(40:02)]	collision cross section (N2)	295.66

----------
Conditions: [M+Na]+; instrument: DT; stepped-field

COMPOUND	READING_UNIT	collision cross section (N2)
CC(=O)N[C@H]1[C@H](O[C@H]2[C@@H](O)[C@@H](CO)O[C@@H](O[C@H]3[C@H](O)[C@@H](O)C(O)O[C@@H]3CO)[C@@H]2O)O[C@H](CO)[C@@H](O)[C@@H]1O[C@@H]1O[C@H](CO)[C@H](O)[C@H](O)[C@H]1O[C@@H]1O[C@@H](C)[C@@H](O)[C@@H](O)[C@@H]1O (stereo partly drawn) [Lacto-N-Fucopentaose I]	Å²	276.1
OC[C@H]1O[C@@H]2O[C@H]3[C@H](O)[C@@H](O)[C@@H](O[C@H]4[C@H](O)[C@@H](O)[C@@H](O[C@H]5[C@H](O)[C@@H](O)[C@@H](O[C@H]6[C@H](O)[C@@H](O)[C@@H](O[C@H]7[C@H](O)[C@@H](O)[C@@H](O[C@H]1[C@H](O)[C@H]2O)O[C@@H]7CO)O[C@@H]6CO)O[C@@H]5CO)O[C@@H]4CO)O[C@@H]3CO [Alpha-Cyclodextrin]	Å²	285.5
CCCCC/C=C\C/C=C\C/C=C\CCCCCCC(=O)O[C@H](COC(=O)CCCCCCC/C=C\C/C=C\CCCCC)COP(=O)(O)OCCN [PE(38:5)]	Å²	287.2
CCCCCCCCCCCCC=CC[C@@H](O)[C@H](CO[C@@H]1O[C@H](CO)[C@@H](O)C(O)C1O)NC(=O)CC=CCCCCCCCCCCCCCCCCCCCC (stereo partly drawn) [GlcCer(42:2)]	Å²	305.2
CCCC/C=C\C/C=C\CCCCCCCC(=O)OC[C@H](COP(=O)(O)OCCN)OC(=O)CCCCC/C=C\C/C=C\C/C=C\C/C=C\CCCCC [PE(39:6)]	Å²	286.4
CCCCCCCCCCCCC=CC[C@@H](O)[C@H](CO[C@@H]1O[C@H](CO)[C@@H](O)C(O)C1O)NC(=O)CC=CCCCCCCCCCCCCCC (stereo partly drawn) [GlcCer(36:2)]	Å²	282.6
OCC1OC(OC2C(CO)OC(OC3C(CO)OC(OC4C(CO)OC(OC5C(CO)OC(OC6C(CO)OC(OC7C(CO)OC(OC8C(CO)OC(OC9C(CO)OC(OC%10C(CO)OC(OC%11C(CO)OC(O)C(O)C%11O)C(O)C%10O)C(O)C9O)C(O)C8O)C(O)C7O)C(O)C6O)C(O)C5O)C(O)C4O)C(O)C3O)C(O)C2O)C(O)C(O)C1O (stereo not drawn) [(Hex)11]	Å²	384.6
CCCCC/C=C\C/C=C\C/C=C\C/C=C\CCCCCC(=O)O[C@H](COC(=O)CCCCCCCCC/C=C\CCCCCCCC)COP(=O)(O)OC[C@H](N)C(=O)O [PS(42:5)]	Å²	307

----------
Conditions: [M+H]+; instrument: TW; calibrated with polyalanine and drug standards

MOLECULE	collision cross section (N2)
CC(=O)Oc1ccc(Cl)c2cccnc12	141.1 Å²
CCCCC(=O)N(Cc1ccc(-c2ccccc2-c2nn[nH]n2)cc1)[C@H](C(=O)O)C(C)C	202 Å²
CCCCc1nc(Cl)c(CO)n1Cc1ccc(-c2ccccc2-c2nn[nH]n2)cc1	199.2 Å²
COC(=O)[C@H](Cc1ccccc1)NC(=O)/C(=C1\OC(=O)C(c2ccccc2)=C1O)c1ccccc1	212.8 Å²
COc1ccc(C(=O)c2ccccc2)c(O)c1	146.5 Å²
CCOc1cccc(C(=O)c2ccc(O)c(O)c2O)c1 [3,4-DIDESMETHYL-5-DESHYDROXY-3'-ETHOXYSCLEROIN]	160.3 Å²
COc1ccc([C@@H](C)C(=O)c2ccc(O)cc2O)cc1 [ANGOLENSIN (R)]	162 Å²
O=C(C1CCCCC1)N1CC(=O)N2CCc3ccccc3C2C1 (stereo not drawn)	176.5 Å²

----------
Overview of reported collision cross section (N2) across a group of compounds:
Settings: [M+H]+; instrument: DT; stepped-field
MEASURED_PARAMETER: collision cross section (N2) (Å²)

COMPOUND	EXPERIMENTAL_VALUE
Nc1nc(=O)c2c([nH]1)NCC(CNc1ccc(C(=O)N[C@@H](CCC(=O)O)C(=O)O)cc1)=N2 [Dihydrofolate]	193.63
Cc1ncsc1CCO	145.34
CP(=O)(O)CCC(N)C(=O)O (stereo not drawn) [Glufosinate]	140.15
C[S+](CC[C@H](N)C(=O)[O-])C[C@H]1O[C@@H](n2cnc3c(N)ncnc32)[C@H](O)[C@@H]1O (stereo partly drawn)	186.46
Cn1cncc1C[C@H](N)C(=O)O	136.57
Nc1nc(=O)c2ncn([C@H]3C[C@H](O)[C@@H](COP(=O)(O)O)O3)c2[nH]1 [2'-Deoxyguanosine 5'-Monophosphate]	178.96
O=C(O)c1cccnc1	128.35
COc1cc(O)c2c(c1)O[C@H](c1ccccc1)CC2=O	164.24
CSc1nnc(C(C)(C)C)c(=O)n1N	150.5
C1=Cc2c3ccc4ccccc4c3cc3cccc1c23	155.08
O=C(O)CC(O)(CC(=O)O)C(=O)O	148.9
c1cncc(C2CCCCN2)c1 (stereo not drawn)	140.18
Cc1ncc(C[n+]2csc(CCOP(=O)(O)O)c2C)c(N)n1 [Thiamine Monophosphate]	172.53

----------
Conditions: [M+H]+; instrument: TW; calibrated with polyalanine and drug standards
MEASURED_PARAMETER: collision cross section (N2) (Å²)

MOLECULE	EXPERIMENTAL_VALUE
Cc1cc(=O)oc2c(O)c(O)ccc12	134.8
CC(C)CCCC(C)N (stereo unspecified)	134.7
CC(C)NCC(O)c1cc(O)cc(O)c1 (stereo unspecified)	149.9
Cc1cc(=O)n(-c2ccccc2)n1C [ANTIPYRINE]	137.8
CC(C(=O)O)c1ccc(C(=O)c2cccs2)cc1 (stereo unspecified)	157.2
COc1c(-c2coc3cc4c(cc3c2=O)CC(OC(C)=O)C(C)(C)O4)ccc2c1C=CC(C)(C)O2 (stereo unspecified) [MUNDULONE ACETATE]	222.7
